system: SARS-CoV-2; assay: microbe, parasite or virus in culture; assay type: cell-based; conditions: Calu-3 cells, MOI 0.5, 24 h
result.type: IC50

Can you share its IC50? I mean this molecule: `COc1ncc(-c2ccc3nccc(-c4ccnnc4)c3c2)cc1NS(=O)(=O)c1ccc(F)cc1F`
10 nM

###

assay: Checkerboard drug combination assay, cell viability of Vero cells; conditions: African green monkey, Vero cells (ATCC CCL-81), Relative cell viability (%), Fig. 4H; Tipifarnib 0.00 μM; Remdesivir 1.26 μM
result.type: viability at 24 h, 1.26 μM (%)
Your answer should be a plain number; it is taken to be in %.

viability at 24 h, 1.26 μM for CCC(CC)COC(=O)[C@H](C)N[P@](=O)(OC[C@H]1O[C@@](C#N)(c2ccc3c(N)ncnn23)[C@H](O)[C@@H]1O)Oc1ccccc1 [Remdesivir] ?
90

###

experiment: in vitro; conditions: African green monkey, Relative cell viability (%), Fig. 4B; Omipalisib 1.97 μM; Remdesivir 0.00 μM
result.type: viability (%)
Form entry: value (%) — number only.

I would be grateful if you could share the reported viability for `COc1ncc(-c2ccc3nccc(-c4ccnnc4)c3c2)cc1NS(=O)(=O)c1ccc(F)cc1F` .
80

###

assay: Checkerboard drug combination assay, cell viability of Vero cells; conditions: African green monkey, Vero cells (ATCC CCL-81), Relative cell viability (%), Fig. 4H; Tipifarnib 0.00 μM; Remdesivir 40.36 μM
result.type: viability at 24 h, 40.36 μM (%)
Record the value in %, omitting the unit from your answer.

Which measured viability at 24 h, 40.36 μM value corresponds to CCC(CC)COC(=O)[C@H](C)N[P@](=O)(OC[C@H]1O[C@@](C#N)(c2ccc3c(N)ncnn23)[C@H](O)[C@@H]1O)Oc1ccccc1 [Remdesivir] ?
94

###

test: in vitro; conditions: African green monkey, Relative cell viability (%), Fig. 4B; Omipalisib 0.49 μM; Remdesivir 0.00 μM
result.type: viability (%)
Give the number; % is assumed, so skip it.

# input molecule: `COc1ncc(-c2ccc3nccc(-c4ccnnc4)c3c2)cc1NS(=O)(=O)c1ccc(F)cc1F` ; wanted: its viability
80

###

assay: Checkerboard drug combination assay, cell viability of Vero cells; conditions: African green monkey, Vero cells (ATCC CCL-81), Relative cell viability (%), Fig. 4B; Omipalisib 0.00 μM; Remdesivir 20.18 μM
result.type: viability at 24 h, 20.18 μM (%)
Dear colleague, please return just the value in %, with no unit written.

Need viability at 24 h, 20.18 μM, item `CCC(CC)COC(=O)[C@H](C)N[P@](=O)(OC[C@H]1O[C@@](C#N)(c2ccc3c(N)ncnn23)[C@H](O)[C@@H]1O)Oc1ccccc1`
93

###

assay: Checkerboard drug combination assay, cell viability of Vero cells; conditions: African green monkey, Vero cells (ATCC CCL-81), Relative cell viability (%), Fig. 4H; Tipifarnib 0.00 μM; Remdesivir 20.18 μM
result.type: viability at 24 h, 20.18 μM (%)
I only need the number, in %, no unit after it.

Using the record for `CCC(CC)COC(=O)[C@H](C)N[P@](=O)(OC[C@H]1O[C@@](C#N)(c2ccc3c(N)ncnn23)[C@H](O)[C@@H]1O)Oc1ccccc1` , report its viability at 24 h, 20.18 μM.
98

###

assay: in vitro; settings: African green monkey, Relative cell viability (%), Fig. 4E; Tipifarnib 2.75 μM; Omipalisib 0.00 μM
result.type: viability (%)
Answer with a number only, understood to be in %.

Can you share its viability? I mean this compound: Cn1cncc1[C@@](N)(c1ccc(Cl)cc1)c1ccc2c(c1)c(-c1cccc(Cl)c1)cc(=O)n2C [Tipifarnib]
90

Data provenance is paper PMC8325362.
